Please provide measured JUN normalized level of expression (Zscore vs NARS2), RT-PCR, cells with peptide at 450 µM for the entries that follow.
- study system: T1, TWEAK (Peprotech EC, Ltd, U.K.) (UniProt O43508 94-249, limits assumed)
- T1 sequence (looked up): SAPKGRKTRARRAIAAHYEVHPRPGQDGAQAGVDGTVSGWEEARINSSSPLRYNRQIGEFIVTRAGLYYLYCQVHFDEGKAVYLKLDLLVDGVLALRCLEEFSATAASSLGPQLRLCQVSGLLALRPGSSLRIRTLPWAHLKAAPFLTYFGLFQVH
- protocol details: cell-based or functional assay
Where no end group is shown, it is not given here.
Give the number; Zscore is assumed, so skip it.

Recorded JUN normalized level of expression (Zscore vs NARS2), RT-PCR, cells with peptide at 450 µM for SWYDHMAGDSSY-NH2 [Peptide 1: SWYDHMAGDSSY (SEQ ID NO: 2)] , please?
-0.509

Recorded JUN normalized level of expression (Zscore vs NARS2), RT-PCR, cells with peptide at 450 µM for DNGGGNTDIYSE-NH2 [Peptide 4: DNGGGNTDIYSE (SEQ ID NO: 4)] , please?
-0.509

Recorded JUN normalized level of expression (Zscore vs NARS2), RT-PCR, cells with peptide at 450 µM for TTDGSTGDDLQA-NH2 [Peptide 2: TTDGSTGDDLQA (SEQ ID NO: 1)] , please?
-0.488

Recorded JUN normalized level of expression (Zscore vs NARS2), RT-PCR, cells with peptide at 450 µM for SYTDVQDS-NH2 [Peptide 3: SYTDVQDS (SEQ ID NO: 3)] , please?
-0.206
